- Tested on: MDA-MB-435
Labels: y (active), n (inactive)

[
  {
    "molecule": "CC/C=C\\C[C@H](F)C/C=C1/C(=O)C=C[C@@H]1C/C=C\\CCCC(=O)OC",
    "assignedCategory": "n"
  },
  {
    "molecule": "COc1cccc(/C=C/C(=O)c2ccc(SC)cc2)c1OC",
    "assignedCategory": "n"
  },
  {
    "molecule": "CCCCN1CCCC[C@@H]1C(=O)N[C@H](C(=O)N(C)[C@H](C[C@@H](OC(C)=O)c1nc(C(=O)NC2CCC(C(=O)OC)CC2)cs1)C(C)C)C(C)C (stereo partly drawn)",
    "assignedCategory": "y"
  },
  {
    "molecule": "COC(=O)c1ccc2c(c1)C(=O)c1c-2n(CCCCl)c(=O)c2cc([N+](=O)[O-])ccc12",
    "assignedCategory": "n"
  },
  {
    "molecule": "O=C1/C(=C/c2ccccc2)CN(C(=O)C(Cl)Cl)C/C1=C\\c1ccccc1",
    "assignedCategory": "y"
  },
  {
    "molecule": "O=C(Nc1ccc(Cc2ccccc2)cc1)Nc1nn(C(=O)Nc2ccc(Cc3ccccc3)cc2)c2ccccc12",
    "assignedCategory": "n"
  },
  {
    "molecule": "CC1=CC(C)=NN=C(N)N1S(=O)(=O)c1cc(C)c(Cl)cc1SCc1ccccc1",
    "assignedCategory": "n"
  },
  {
    "molecule": "COc1ccc(C=Nc2c(C(=O)Nc3cccc(Cl)c3C)sc3nc(C)c(C(=O)/C=C/c4ccc(OC)cc4)cc23)cc1",
    "assignedCategory": "y"
  }
]

====

- System: HT29 colon
- experimentalDetails: NCI tumour cell line growth inhibition, 48 h; in the data active = GI50 below about 0.43 µM; inactive = the rest
Outcomes: 1 = active, -1 = inactive

[
  {
    "compound": "COc1ccc(C#Cc2ccc(=O)oc2-c2cc(OC)c(OC)c(OC)c2)cc1O",
    "assignedCategory": -1
  },
  {
    "compound": "C=C(CN1CCN(c2ccc(C(F)(F)F)cc2)CC1)c1ccc(C(=O)Nc2ccccc2N)cc1",
    "assignedCategory": -1
  },
  {
    "compound": "CCCCC(CCCCCC(CCCC)NCc1ccc2c(c1)OCO2)NCc1ccc2c(c1)OCO2 (centres undefined)",
    "assignedCategory": 1
  },
  {
    "compound": "CN(CCCCCl)P(=O)(OCCS(=O)(=O)CC(NC(=O)CCC(N)C(=O)O)C(=O)NC(C(=O)O)c1ccccc1)OCC1OC(n2ccc(N)nc2=O)C(O)C1O (centres undefined)",
    "assignedCategory": -1
  }
]

====

- Test system: HCT-116 colon
- experimentalDetails: NCI tumour cell line growth inhibition, 48 h
readout: TGI

[
  {
    "compound": "N#CC12CCC1C1CCCCC12N1CCSCC1 (stereo unspecified)",
    "measured": "> 100 µM"
  },
  {
    "compound": "Cc1n[nH]c(=S)n(C)c1=S",
    "measured": "> 100 µM"
  },
  {
    "compound": "COc1ccc(/C=C2/CSCC3=C2NC(=S)NC3c2ccc(OC)c(OC)c2OC)c(OC)c1OC (stereo unspecified)",
    "measured": "60 µM"
  },
  {
    "compound": "CCCNC(=S)N/N=C(\\C)c1ccc(S(=O)(=O)N(C)c2ccccc2)cc1",
    "measured": "> 100 µM"
  },
  {
    "compound": "CCCCOC(=O)c1ccc(N)cc1",
    "measured": "> 100 µM"
  },
  {
    "compound": "COC(=O)C1CCC(=S)N1C(=O)OCc1ccccc1 (stereo unspecified)",
    "measured": "> 100 µM"
  }
]

====

- System: HCC-2998 colon
- experimentalDetails: NCI tumour cell line growth inhibition, 48 h; in the data active = GI50 below about 0.43 µM; inactive = the rest
Outcomes: class 1 for active, class 0 for inactive

[
  {
    "compound": "Cc1nc2c(c(N3CCCc4ccccc43)n1)CCC2",
    "tgt": "HCC-2998 colon",
    "assignedCategory": "class 1"
  },
  {
    "compound": "CCC[CH2][Sn]([CH2]CCC)([O]c1cccc2cccnc12)[O]c1cccc2cccnc12",
    "tgt": "HCC-2998 colon",
    "assignedCategory": "class 1"
  },
  {
    "compound": "CN(C)CCCN(CCC1CCCCC1)CCC1CCCCC1",
    "tgt": "HCC-2998 colon",
    "assignedCategory": "class 1"
  },
  {
    "compound": "CC1CCN(Cc2ccc(NC(=O)c3cc4ccc5cccnc5c4[nH]3)cc2)CC1",
    "tgt": "HCC-2998 colon",
    "assignedCategory": "class 0"
  },
  {
    "compound": "CCCCC(CCCCCC(CCCC)NCc1ccc2c(c1)OCO2)NCc1ccc2c(c1)OCO2 (stereo not given)",
    "tgt": "HCC-2998 colon",
    "assignedCategory": "class 1"
  },
  {
    "compound": "N.N.N.N.N.NC(=O)[O-].[Co+3].[I-]",
    "tgt": "HCC-2998 colon",
    "assignedCategory": "class 0"
  },
  {
    "compound": "CCCc1n(Cc2ccc3ccccc3c2)cc[n+]1Cc1ccc2ccccc2c1",
    "tgt": "HCC-2998 colon",
    "assignedCategory": "class 0"
  },
  {
    "compound": "Cc1c(-c2ccc(C3CCCCC3)cc2)nc2ccc(F)cc2c1C(=O)O",
    "tgt": "HCC-2998 colon",
    "assignedCategory": "class 0"
  },
  {
    "compound": "C=C1C(=O)O[C@H]2[C@H]1CC/C(COC(=O)NCc1c[nH]c3ccccc13)=C\\CC[C@@]1(C)O[C@@H]21",
    "tgt": "HCC-2998 colon",
    "assignedCategory": "class 0"
  },
  {
    "compound": "CSCS(=O)C[C@H](CO)NC(=O)/C=C/c1c(C)[nH]c(=O)[nH]c1=O (stereo not given in full)",
    "tgt": "HCC-2998 colon",
    "assignedCategory": "class 0"
  }
]

====

- Tested on: CAKI-1 renal
- experimentalDetails: NCI tumour cell line growth inhibition, 48 h
Known GI50 of a selection of molecules

[
  {
    "molecule": "N#Cc1c(NCc2ccccc2)nc(NCc2ccccc2)c(C#N)c1-c1ccc(O)cc1",
    "GI50": "10.7 µM"
  },
  {
    "molecule": "Cc1c(O)c(N=Nc2nc3ccccc3s2)c2ccccc2c1O",
    "GI50": "21.1 µM"
  },
  {
    "molecule": "CSC(=NC#N)S/C=C/C(=O)c1ccccc1",
    "GI50": "16.6 µM"
  },
  {
    "molecule": "CN(CCCCCl)P(=O)(OCCS(=O)(=O)CC(NC(=O)CCC(N)C(=O)O)C(=O)NC(C(=O)O)c1ccccc1)OCC1OC(n2ccc(N)nc2=O)C(O)C1O (stereo not given)",
    "GI50": "11 µM"
  },
  {
    "molecule": "CSc1c(C2=C(c3cn(C)c4ccccc34)C(=O)NC2=O)c2ccccc2n1C",
    "GI50": "0.741 µM"
  }
]

====

- System: UACC-257 melanoma
- experimentalDetails: NCI tumour cell line growth inhibition, 48 h

[
  {
    "smilesRepresentation": "O=C(Nc1ccc(Cc2ccccc2)cc1)Nc1nn(C(=O)Nc2ccc(Cc3ccccc3)cc2)c2ccccc12",
    "GI50": "> 100 µM"
  },
  {
    "smilesRepresentation": "Oc1ccc(Nc2ccc3ccccc3c2)cc1",
    "GI50": "4.86 µM"
  },
  {
    "smilesRepresentation": "C=C1C(=O)O[C@H]2[C@H]1CC/C(COC(=O)NCc1c[nH]c3ccccc13)=C\\CC[C@@]1(C)O[C@@H]21",
    "GI50": "4.25 µM"
  },
  {
    "smilesRepresentation": "COc1ccc2c(c1)c(-c1nc(-c3c[nH]c4ncccc34)cs1)cn2CCCN1CCCCC1",
    "GI50": "1.96 µM"
  },
  {
    "smilesRepresentation": "Cn1c(=O)c(Oc2ccc(F)cc2F)cc2cnc(NC(C)(C)CO)nc21",
    "GI50": "> 25 µM"
  }
]

====

- System: 786-0 renal
- experimentalDetails: NCI tumour cell line growth inhibition, 48 h; in the data active = GI50 below about 0.43 µM; inactive = the rest
Possible outcomes: active, inactive

[
  {
    "compound": "COC(=O)C1=C(O)[C@H](C(=O)OC)C2(O)C(C(=O)OC)[C@H](c3ccc(OC(=O)C(C)c4ccccc4)cc3)C[C@@H]1[C@@H]2C(=O)OC (some centres not stated)",
    "assignedCategory": "inactive"
  },
  {
    "compound": "CCCCOC(=O)c1ccc(N)cc1",
    "assignedCategory": "inactive"
  },
  {
    "compound": "COc1cc2c(c(OC)c1OC)-c1ccc(O)cc1[C@@H](NC(C)=O)CC2",
    "assignedCategory": "active"
  },
  {
    "compound": "CCCCN1CCCC[C@@H]1C(=O)N[C@H](C(=O)N(C)[C@H](C[C@@H](OC(C)=O)c1nc(C(=O)NC2CCC(C(=O)OC)CC2)cs1)C(C)C)C(C)C (some centres not stated)",
    "assignedCategory": "inactive"
  },
  {
    "compound": "O=C1C(Cl)=C(Nc2ccc(Nc3ccccc3)c(NC3=C(Cl)C(=O)c4ccccc4C3=O)c2)C(=O)c2ccccc21",
    "assignedCategory": "inactive"
  },
  {
    "compound": "CCCCCCCCCCCCCCCC1=NCCN1",
    "assignedCategory": "inactive"
  },
  {
    "compound": "C=C1C(=O)O[C@H]2[C@H]1CC/C(COC(=O)NCc1c[nH]c3ccccc13)=C\\CC[C@@]1(C)O[C@@H]21",
    "assignedCategory": "inactive"
  },
  {
    "compound": "CCCc1n(Cc2ccc3ccccc3c2)cc[n+]1Cc1ccc2ccccc2c1",
    "assignedCategory": "inactive"
  },
  {
    "compound": "CN(CCCCCl)P(=O)(OCCS(=O)(=O)CC(NC(=O)CCC(N)C(=O)O)C(=O)NC(C(=O)O)c1ccccc1)OCC1OC(n2ccc(N)nc2=O)C(O)C1O (configuration not stated)",
    "assignedCategory": "inactive"
  },
  {
    "compound": "CCN(CC)CCCC(C)Nc1ccnc2cc(Cl)ccc12 (configuration not stated)",
    "assignedCategory": "inactive"
  },
  {
    "compound": "COc1ccc2c(c1)c(-c1nc(-c3c[nH]c4ncccc34)cs1)cn2CCCN1CCCCC1",
    "assignedCategory": "inactive"
  },
  {
    "compound": "N#Cc1c(NCc2ccccc2)nc(NCc2ccccc2)c(C#N)c1-c1ccc(O)cc1",
    "assignedCategory": "inactive"
  }
]
